# Tested on: Klebsiella pneumoniae
# Test Details: Antimicrobial activity against Klebsiella pneumoniae CCM 2318 after 18 hrs by microdilution method
# Format: functional
# Conditions: CCM 2318, 18 h
Please respond with reported MIC for every item in the list.
Answers are plain numbers, in µg/mL.

Reference set, count: 9
FC(F)(F)c1ccc(C[N+]2=CN3CCCCC3C2)cc1.[Br-] (stereo unspecified) : 12.5
Cc1cc(C)c(C[N+]2=CN3CCCCC3C2)c(C)c1.[Br-] (stereo unspecified) : 200
Cc1c(C)c(C)c(C[N+]2=CN3CCCCC3C2)c(C)c1C.[Br-] (stereo unspecified) : 50
N#Cc1ccc(C[N+]2=CN3CCCCC3C2)cc1.[Br-] (stereo unspecified) : 12.5
Cc1cc(C)c(C)c(C[N+]2=CN3CCCCC3C2)c1C.[Br-] (stereo unspecified) : 200
Fc1c(F)c(F)c(C[N+]2=CN3CCCCC3C2)c(F)c1F.[Br-] (stereo unspecified) : 12.5
Cc1ccc(C[N+]2=CN3CCCCC3C2)cc1.[Br-] (stereo unspecified) : 0.78
Clc1ccc(C[N+]2=CN3CCCCC3C2)c(Cl)c1.[Br-] (stereo unspecified) : 12.5
Clc1ccc(C[N+]2=CN3CCCCC3C2)cc1.[Br-] (stereo unspecified) : 12.5

Please fill in: MIC reported for CC(C)(C)c1ccc(C[N+]2=CN3CCCCC3C2)cc1.[Br-] (stereo unspecified) = 200
